Values were extracted from PubChem BioAssay AID2060484.

Tested on: SUM149PT spheroids with HUVEC/MSC, viability
Experimental protocol: Anticancer human tumor SUM149PT cell line growth inhibition [GQUAD];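 also: spheroids exposed to drugs for seven days before readout; percent viability relative to DMSO vehicle control taken as 100%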
Condition set: second compound 1 µM; first compound 0.0316 µM; stronger effect = lower value
As shown below, each of these compounds has a reported viability, T/C value.

{"Compound": "O=C(NO)c1cnc(N2CCN(S(=O)(=O)c3ccc4ccccc4c3)CC2)nc1 + CN(C)c1ccc(Nc2c3ccc(NC(=O)CCN4CCCC4)cc3nc3cc(NC(=O)CCN4CCCC4)ccc23)cc1", "viability, T/C": "93%"}
{"Compound": "Cc1[nH]c2ccccc2c1CCNCc1ccc(/C=C/C(=O)NO)cc1 + CN(C)c1ccc(Nc2c3ccc(NC(=O)CCN4CCCC4)cc3nc3cc(NC(=O)CCN4CCCC4)ccc23)cc1", "viability, T/C": "85.5%"}
{"Compound": "CC1COCCN1c1cc(-c2ccnn2C)c2ccnc(-c3ccn[nH]3)c2n1 (stereo unspecified) + CN(C)c1ccc(Nc2c3ccc(NC(=O)CCN4CCCC4)cc3nc3cc(NC(=O)CCN4CCCC4)ccc23)cc1", "viability, T/C": "82.6%"}
{"Compound": "Cc1cccc(N(C)C(=O)C2C(O)CCN2c2nc(C)cc(C(F)(F)F)c2C#N)c1 (stereo unspecified) + Cc1[nH]c2ccc(F)cc2c1-c1nc2c3cccnc3c3ncccc3c2[nH]1", "viability, T/C": "97.3%"}
{"Compound": "CCc1c2c(nc3ccc(O)cc13)-c1cc3c(c(=O)n1C2)COC(=O)[C@]3(O)CC + CN(C)c1ccc(Nc2c3ccc(NC(=O)CCN4CCCC4)cc3nc3cc(NC(=O)CCN4CCCC4)ccc23)cc1", "viability, T/C": "48.8%"}
{"Compound": "O=C(NO)c1cnc(N2CCN(S(=O)(=O)c3ccc4ccccc4c3)CC2)nc1 + Cc1cnc(CNC(=O)c2c(=O)c3ccc(N4CCCN(C)CC4)nc3n3c2sc2ccccc23)cn1", "viability, T/C": "48.3%"}
